Catalogue of TGI values
System: SR leukemia
Experiment: NCI tumour cell line growth inhibition, 48 h
MEASURED_ENDPOINT: TGI

>>> experimental_value("COc1ccc(C(C)c2cc3c(cc2O)OCO3)cc1 (stereo not given)")
"13.6 µM"
>>> experimental_value("COc1cccc(C2=C(c3cn(C)c4ccc(Cl)cc34)C(=O)NC2=O)c1")
"> 18.6 µM"
>>> experimental_value("c1ccc2c(c1)c1c(n2CCOCCCN2CCCCC2)CCCC1")
"35.1 µM"
>>> experimental_value("CC(C)C(=O)OCN(C)c1nc(N(C)COC(=O)C(C)C)nc(N(C)COC(=O)C(C)C)n1")
"50.5 µM"
>>> experimental_value("Nc1ncnc2c1ncc(=O)n2C1CC(O)C(CO)O1 (stereo not given)")
"> 100 µM"
>>> experimental_value("CCn1c(O)c(C=Nc2ccccc2)s/c1=N/Nc1ncc(CC(=O)Nc2ccccc2C)s1")
"> 100 µM"
>>> experimental_value("O=c1[nH]cnc2c1sc(=S)n2-c1ccccc1")
"> 100 µM"
>>> experimental_value("CC1CC/C(=C\\c2ccc(F)cc2)C2=C1C(c1ccc(F)cc1)n1c(s/c(=C/c3cccc(Br)c3)c1=O)=N2 (stereo not given)")
"> 100 µM"
>>> experimental_value("O=C(/C=C/c1ccc(O)c(O)c1)OCCCOC(=O)/C=C/c1ccc(O)c(O)c1")
"> 100 µM"
>>> experimental_value("O=C1Nc2ccccc2/C1=C\\c1c(-c2ccccc2)nc2ccccn12")
"> 100 µM"

---

Tested on: HL-60(TB) leukemia
Experiment: NCI tumour cell line growth inhibition, 48 h
Where a SMILES comes first, the peptide text is derived from it. [ ]: non-standard residue; d: D form. The star is where a group is joined. Dolaproine = CO[C@@H]([C@@H]1CCCN1)[C@@H](C)C(=O)O; Dil = CC[C@H](C)[C@H](NC)[C@@H](CC(=O)O)OC; X2 = C[C@@H](N*)[C@@H](O)c1ccccc1; NMeV = CN[C@H](C(=O)O)C(C)C
The entries below are paired with their reported GI50.
MEASURED_ENDPOINT: GI50

>>> experimental_value("COc1cc(Nc2ccnc(NCCNc3ccnc4cc(Cl)ccc34)n2)cc(OC)c1")
"2220 nM"
>>> experimental_value("CCC[CH2][Sn]1([CH2]CCC)[O]CC(CN2CCCCC2)[O]1 (stereo not given)")
"68.3 nM"
>>> experimental_value("CC[C@H](C)[C@H](NC(=O)c1ccccn1)C(=O)N(C)[C@H](C[C@@H](OC(C)=O)c1nc(C(=O)N[C@@H](Cc2ccccc2)C[C@H](C)C(=O)OC)cs1)C(C)C")
"7890 nM"
>>> experimental_value("CC[C@H](C)[C@@H]([C@@H](CC(=O)N1CCC[C@H]1[C@H](OC)[C@@H](C)C(=O)N[C@H](C)[C@@H](O)c1ccccc1)OC)N(C)C(=O)[C@@H](NC(=O)[C@@H](NC)C(C)C)C(C)C (H-[NMeV]V[Dil][Dolaproine]-X2)")
"< 5 nM"
>>> experimental_value("Nc1n[nH]c2cccc(C#Cc3cccc(NC(=O)c4ccc(N5CCOCC5)c(C(F)(F)F)c4)c3)c12")
"1400 nM"
>>> experimental_value("ClCc1ccccc1Cn1cnc2c(Cl)nc(Cl)nc21")
"181 nM"
>>> experimental_value("CN[C@@H](C)C(=O)N[C@H]1CCS[C@H]2CC(C)(C)[C@@H](C(=O)N[C@H]3c4ccccc4C[C@H]3OCC#CC#CCO[C@@H]3Cc4ccccc4[C@@H]3NC(=O)[C@H]3N4C(=O)[C@@H](NC(=O)[C@H](C)NC)CCS[C@H]4CC3(C)C)N2C1=O")
"75.9 nM"
>>> experimental_value("CCCCC(CCCCCC(CCCC)C1NC(C)Cc2cc(OC)c(OC)cc21)C1NC(C)Cc2cc(OC)c(OC)cc21 (stereo not given)")
"1840 nM"
>>> experimental_value("O=C(Nc1ccc2[nH]c3ccccc3c2c1)c1ccccc1Cl")
"3070 nM"
>>> experimental_value("COc1cc(/C=C/C(=O)c2ccc(Nc3nc(NCCO)nc(N4CCOCC4)n3)cc2)cc(OC)c1OC")
"1790 nM"
>>> experimental_value("CC[N+](CC)=c1cc2oc3cc(N(C)C)ccc3nc-2cc1C")
"313 nM"
>>> experimental_value("CCOc1cc(F)c([N+](=O)[O-])cc1[N+](=O)[O-]")
"1770 nM"
>>> experimental_value("O=c1cc(-c2ccc3ccccc3c2)[nH]c2ncc(Cl)cc12")
"1780 nM"
>>> experimental_value("NC(N)=NN=C(c1ccccc1)c1ccccc1")
"3110 nM"
>>> experimental_value("Clc1ccc(C(Cn2ccnc2)OCc2ccsc2Cl)c(Cl)c1 (stereo not given)")
"1820 nM"
>>> experimental_value("COC1=C(OC)C(=O)C(CCCCCCCCCC[P+](c2ccccc2)(c2ccccc2)c2ccccc2)=C(C)C1=O")
"59.8 nM"
>>> experimental_value("O=C(C[n+]1cccc2cc(Cl)ccc21)c1ccc2c(c1)CCCC2")
"882 nM"
>>> experimental_value("COc1ccc(/C(C)=C(\\c2ccc(Cl)cc2)c2ccc(OCCN3CCCCC3)cc2)cc1")
"3940 nM"
>>> experimental_value("COc1cc2c(/C=C3/C(=O)Nc4c3ccc3ccccc43)c(Cl)n(C)c2cc1C")
"59.7 nM"
>>> experimental_value("C=CC(=O)N1CCN(CCCn2c(=O)c(-c3c(Cl)c(OC)cc(OC)c3Cl)cc3cnc(NC)nc32)CC1")
"2800 nM"

---

Tested on: MCF7 breast
Experiment: NCI tumour cell line growth inhibition, 48 h
MEASURED_ENDPOINT: GI50

>>> experimental_value("COc1cccc2[nH]c3c4c(c5c(c3c12)C(=O)N(CN1CCN(C)CC1)C5=O)CCC4")
"9270 nM"
>>> experimental_value("COC1=C(OC)C(=O)C(CCCCCCCCCC[P+](c2ccccc2)(c2ccccc2)c2ccccc2)=C(C)C1=O")
"42 nM"
>>> experimental_value("CCCC[C@H](NC(=O)[C@H]1CCCCN1C)C(=O)N(C)[C@H](C[C@@H](OC(C)=O)c1nc(C(=O)N[C@@H](Cc2ccccc2)C[C@H](C)C(=O)OCC)cs1)C(C)C")
"< 3.33 nM"
>>> experimental_value("COc1ccc2cc(C#Cc3ccc(-n4c(/C=C/c5cc(OC)c(OC)c(OC)c5)nc5ccccc5c4=O)c(C)c3)ccc2c1")
"63800 nM"
>>> experimental_value("C=CC(=O)N1CCN(CCCn2c(=O)c(-c3c(Cl)c(OC)cc(OC)c3Cl)cc3cnc(NC)nc32)CC1")
"8060 nM"
>>> experimental_value("CSc1nc(-c2cc3ccccc3o2)cc(-c2ccc(Cl)cc2)c1C#N")
"352 nM"
>>> experimental_value("OCCCCC#Cc1ccccc1C#Cc1ccccn1")
"37800 nM"
>>> experimental_value("Clc1ccc2c(N3CCN(c4ccnc(NC5CCCCC5)n4)CC3)ccnc2c1")
"1760 nM"
>>> experimental_value("O=C(Cc1n[nH]c(=O)c2ccccc12)OCc1c(Cl)cccc1Cl")
"> 100000 nM"
>>> experimental_value("COc1ccc(-c2cn[nH]c2-c2cc(OC)c(OC)c(OC)c2)cc1OCc1ccccc1")
"3650 nM"
>>> experimental_value("Oc1c(Br)cc(Br)c2ccc(Cn3cc(-c4ccc(C(F)(F)F)cc4)nn3)nc12")
"532 nM"
>>> experimental_value("CCOc1cc(F)c([N+](=O)[O-])cc1[N+](=O)[O-]")
"886 nM"
>>> experimental_value("NC(N)=NN=C(c1ccccc1)c1ccccc1")
"2280 nM"
>>> experimental_value("COc1cc(Nc2ccnc(NCCNc3ccnc4cc(Cl)ccc34)n2)cc(OC)c1")
"1610 nM"

---

Tested on: BT-549 breast
Test: NCI tumour cell line growth inhibition, 48 h
Each entry below carries its reported TGI.
MEASURED_ENDPOINT: TGI

>>> experimental_value("CNC(=O)c1ccccc1Nc1cc(Nc2ccc(N3CCOCC3)cc2OC)ncc1C(F)(F)F")
"41.8 µM"
>>> experimental_value("COc1nc(N)c(N=O)c(OCc2ccccc2)n1")
"> 10 µM"
>>> experimental_value("CCCCC(CCCCCC(CCCC)C1NC(C)Cc2cc(OC)c(OC)cc21)C1NC(C)Cc2cc(OC)c(OC)cc21 (stereo not drawn)")
"3.26 µM"
>>> experimental_value("COc1ccc(-c2cn[nH]c2-c2cc(OC)c(OC)c(OC)c2)cc1OCc1ccccc1")
"25.8 µM"
>>> experimental_value("COC(=O)C1=C(O)C(C(=O)OC)[C@@]2(O)[C@@H](C(=O)OC)C(c3ccc(OC(=O)/C=C/c4ccccc4)cc3)C[C@@H]1[C@@H]2C(=O)OC (stereo partly drawn)")
"60.1 µM"
>>> experimental_value("Cc1ccc(S(=O)(=O)c2ccccc2)cc1")
"> 100 µM"
>>> experimental_value("COc1cc(/C=C/C(=O)c2ccc(Nc3nc(NCCO)nc(N4CCOCC4)n3)cc2)cc(OC)c1OC")
"2.86 µM"
>>> experimental_value("CCCC[C@H](NC(=O)[C@H]1CCCCN1C)C(=O)N(C)[C@H](C[C@@H](OC(C)=O)c1nc(C(=O)N[C@@H](Cc2ccccc2)C[C@H](C)C(=O)OCC)cs1)C(C)C")
"0.133 µM"
